Recorded inhibition at 2.5 µM, one value per entry.
Target: UniProt:P47712
Experiment: Coumarin Assay (cPLA2 inhibition)
Assay type: biochemical
Details: CONCENTRATION 2.5 micromolar; read-out: PERCENT INHIBITION @
A complete answer gives the number and then names the unit.

COc1cc(C(=O)NS(=O)(=O)C(F)(F)F)ccc1Cc1cn(C(c2ccccc2)c2ccccc2)c2ccc(NC(=O)C3CCCC3)cc12
50%
COc1cc(C(=O)NS(=O)(=O)C(F)(F)F)ccc1Cc1cn(C(c2ccccc2)c2ccccc2)c2ccc(NC(=O)OC3CCCC3)cc12
50%
COc1cc(C(=O)NS(=O)(=O)c2nn(C)c(=NC(C)=O)s2)ccc1Cc1cn(C(c2ccccc2)c2ccccc2)c2ccc(NC(=O)OC3CCCC3)cc12
50%
COc1cc(C(=O)NS(=O)(=O)C(F)(F)F)ccc1Cc1cn(C(c2ccccc2)c2ccccc2)c2ccc(NS(C)(=O)=O)cc12
50%
COc1cc(C(=O)O)ccc1Cc1cn(C(c2ccccc2)c2ccccc2)c2ccc(Br)cc12
73%
COc1cc(C(=O)NS(=O)(=O)C(F)(F)F)ccc1Cc1cn(C(c2ccccc2)c2ccccc2)c2ccc(NC(=O)c3ccsc3)cc12
67%
COc1cc(C(=O)NS(=O)(=O)C(F)(F)F)ccc1Cc1cn(C(c2ccccc2)c2ccccc2)c2ccc(NS(=O)(=O)Cc3ccccc3)cc12
74%

# context switch: different compound, same inhibition at 2.5 µM
Exercise: Under UniProt:P47712: inhibition at 2.5 µM value of O=C(Nc1cccc(C(=O)O)c1)C(=O)c1cn(Cc2ccc(OCc3ccccc3)c(OCc3ccccc3)c2)c2ccccc12 ?
Solution: 70%

----------
Molecular target: cPLA2 (Homo sapiens, UniProt P47712)
Sequence (P47712 whole entry): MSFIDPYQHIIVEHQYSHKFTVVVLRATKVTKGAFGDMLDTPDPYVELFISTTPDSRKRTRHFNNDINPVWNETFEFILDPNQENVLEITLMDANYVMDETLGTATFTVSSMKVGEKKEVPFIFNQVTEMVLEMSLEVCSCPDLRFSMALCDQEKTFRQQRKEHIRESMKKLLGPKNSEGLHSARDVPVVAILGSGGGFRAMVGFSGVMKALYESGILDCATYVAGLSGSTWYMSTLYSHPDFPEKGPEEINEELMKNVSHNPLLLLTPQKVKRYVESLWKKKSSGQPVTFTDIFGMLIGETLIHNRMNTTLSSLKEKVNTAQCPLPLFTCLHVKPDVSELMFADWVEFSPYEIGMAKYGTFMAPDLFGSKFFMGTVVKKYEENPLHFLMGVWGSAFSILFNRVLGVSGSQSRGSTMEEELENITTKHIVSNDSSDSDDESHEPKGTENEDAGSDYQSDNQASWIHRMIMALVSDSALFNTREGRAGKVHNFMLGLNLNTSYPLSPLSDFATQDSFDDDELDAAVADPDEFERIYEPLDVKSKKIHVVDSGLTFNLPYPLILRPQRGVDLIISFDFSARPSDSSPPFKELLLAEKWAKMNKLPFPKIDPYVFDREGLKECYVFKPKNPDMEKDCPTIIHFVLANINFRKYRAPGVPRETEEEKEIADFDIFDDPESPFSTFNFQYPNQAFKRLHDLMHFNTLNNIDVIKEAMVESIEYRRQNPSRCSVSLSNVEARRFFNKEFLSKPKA
Assay: Coumarin Assay (cPLA2 inhibition)
Type: biochemical
Conditions: CONCENTRATION 2.5 micromolar; read-out: PERCENT INHIBITION @
Below, each entry is listed alongside its reported inhibition at 2.5 µM.
A number alone suffices; assume %.

O=C(O)COc1ccc(Cc2cn(C(c3ccccc3)c3ccccc3)c3cc(Cl)ccc23)cc1
50
O=C(Nc1cccc(C(=O)O)c1)C(=O)c1c(CSc2ccc3ccccc3c2)n(Cc2ccc(Cl)cc2)c2ccc(OCc3ccccc3)cc12
53

We next turn to a different molecule, shown below.
Exercise: I have this molecule here, COc1cc(C(=O)NS(=O)(=O)c2nnc(NC(C)=O)s2)ccc1Cc1cn(C(c2ccccc2)c2ccccc2)c2ccc(NC(=O)OC3CCCC3)cc12 , and I need its recorded inhibition at 2.5 µM.
Solution: 57

----------
Below, each of the compounds is paired with its reported PERCENT INHIBITION @ value.
Molecular target: cPLA2 (Homo sapiens, UniProt P47712)
Assay: Coumarin Assay (cPLA2 inhibition)
Assay type: biochemical
Settings: CONCENTRATION 100 micromolar
Give a bare numeral; the unit % is implied.

COc1cc(C(=O)NS(=O)(=O)c2ccccc2C)ccc1Cc1cn(C(C)C)c2ccc(NC(=O)OC3CCCC3)cc12
50
O=C(O)c1cscc1NC(=O)c1cn(C(c2ccccc2)c2ccccc2)c2ccc(NC(=O)C3CCCC3)cc12
50
COc1cc(C(=O)O)ccc1Cc1cn(CC2CC2)c2ccc(NC(=O)OC3CCCC3)cc12
41

Below: the item to evaluate.
Exercise: Give its PERCENT INHIBITION @ value. Item: O=C(O)C(=O)c1cn(C(c2ccccc2)c2ccccc2)c2ccc(NC(=O)C3CCCC3)cc12
Solution: 20

These data points were gathered from patent US6500853B1.
